Molecular target: BCR-KIT BaF3 cells (Homo sapiens)
Construct: fused on or other part: P11274 (Breakpoint cluster region protein)
Sequence (P10721 589-937): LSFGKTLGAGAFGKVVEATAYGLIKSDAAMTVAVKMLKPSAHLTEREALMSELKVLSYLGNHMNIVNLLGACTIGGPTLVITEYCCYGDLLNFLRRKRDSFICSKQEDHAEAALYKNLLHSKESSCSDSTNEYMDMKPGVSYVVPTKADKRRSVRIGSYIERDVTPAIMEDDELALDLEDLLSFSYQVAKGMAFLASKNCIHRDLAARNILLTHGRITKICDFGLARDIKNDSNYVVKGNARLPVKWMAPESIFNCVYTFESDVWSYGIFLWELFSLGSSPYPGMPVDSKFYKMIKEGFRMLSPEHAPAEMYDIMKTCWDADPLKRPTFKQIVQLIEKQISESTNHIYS
Experiment: BaF3 BCR-KIT cell proliferation assay (ATPlite)
Settings: read-out: Inhibition of Cell Proliferation IC50, BCR/BaF3 Kit
pIC50: −log10 of the molar value.
// reported pIC50 per item

compound	pIC50
CCNc1ncnc2[nH]cc(C(=O)c3ccc(Nc4ccc(OC)nc4)nc3F)c12	> 7.00
Cc1cnc2[nH]cc(Cc3cnc(Nc4ccc(C(F)(F)F)nc4)nc3)c2c1	> 7.00
CNc1ncnc2[nH]cc(C(=O)c3ccc(NC4CCC(F)(F)CC4)nc3Cl)c12	> 6.00
O=C(c1ccc(Nc2ccc(C(F)(F)F)nc2)nc1F)c1c[nH]c2ncnc(NC3CC3)c12	> 7.00
O=C(c1ccc(NC2CCC(F)(F)CC2)nc1)c1c[nH]c2ncnc(NC3CC3)c12	> 6.00
COc1ccc(Nc2ccc(C(=O)c3c[nH]c4ncnc(NC5CCC5)c34)c(F)n2)cn1	> 7.00
CCc1ccc(Nc2ccc(C(=O)c3c[nH]c4ncnc(NCCOC)c34)c(F)n2)cn1	> 7.00
COc1ccc(Nc2ccc(C(=O)c3c[nH]c4ncnc(N[C@@H](C)c5ccc(F)cc5)c34)c(F)n2)cn1	> 6.00
CCOc1ncnc2[nH]cc(Cc3ccc(Nc4cccnc4)nc3F)c12	< 6.00
CCc1ccc(Nc2ccc(C(=O)c3c[nH]c4ncnc(NC(C)C)c34)c(F)n2)cn1	> 7.00
CCC(C)Nc1ncnc2[nH]cc(C(=O)c3ccc(Nc4ccc(OC)nc4)nc3F)c12 (stereo not shown)	> 7.00
CCc1ccc(Nc2ccc(Cc3c[nH]c4ncnc(C5CC5)c34)c(F)n2)cn1	> 6.00
CCOc1ccc(Nc2ccc(Cc3c[nH]c4ncnc(OCCOC)c34)c(F)n2)cn1	> 6.00
COc1ccc(Nc2ncc(Cc3c[nH]c4ncc(C)cc34)cn2)cc1	> 7.00
CCc1ccc(Nc2ccc(C(=O)c3c[nH]c4ncnc(NC5CCC(F)(F)CC5)c34)c(F)n2)cn1	> 6.00
Cc1cnc2[nH]cc(Cc3cnc(Nc4cc(OC(C)C)n[nH]4)nc3)c2c1	> 6.00

====

Target: BCR-NTRK2 BaF3 cells (Homo sapiens)
Construct: fused on or other part: P11274 (Breakpoint cluster region protein)
Assay: BaF3 BCR-NTRK2 cell proliferation assay (ATPlite)
Settings: read-out: Inhibition of Cell Proliferation IC50, BCR/BaF3 TrkB
// reported IC50 per item

compound	IC50
CCc1ccc(Nc2ccc(C(=O)c3c[nH]c4ncnc(NCC(C)(C)O)c34)c(F)n2)cn1 [Compound P-4064]	< 10 nM
CCc1ccc(Nc2ccc(Cc3c[nH]c4ncnc(OCCOC)c34)c(F)n2)cn1 [Compound P-4016]	< 10 nM
CCn1cc(Nc2ccc(Cc3c[nH]c4ncnc(C5CC5)c34)c(F)n2)cn1 [Compound P-4036]	< 100 nM
CNc1ncnc2[nH]cc(C(=O)c3ccc(Nc4ccc(C)nc4)nc3F)c12 [Compound P-4115]	< 100 nM

====

// reported IC50 per item
Target: BCR-NTRK2 BaF3 cells (Homo sapiens, UniProt Q16620)
Construct: fused on or other part: P11274 (Breakpoint cluster region protein)
Sequence (Q16620 538-807): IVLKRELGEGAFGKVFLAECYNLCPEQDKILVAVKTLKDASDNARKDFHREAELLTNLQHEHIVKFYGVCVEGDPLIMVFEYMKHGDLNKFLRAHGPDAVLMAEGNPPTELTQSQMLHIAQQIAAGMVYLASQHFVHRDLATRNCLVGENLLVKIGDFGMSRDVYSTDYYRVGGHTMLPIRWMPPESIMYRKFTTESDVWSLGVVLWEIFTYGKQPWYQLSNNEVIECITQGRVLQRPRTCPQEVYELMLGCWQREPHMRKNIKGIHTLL
Experiment: BaF3 BCR-NTRK2 cell proliferation assay (ATPlite)
Conditions: read-out: Inhibition of Cell Proliferation IC50, BCR/BaF3 TrkB
experimental_endpoint: IC50

smiles_str	tested_on	reported_measurement
Clc1ccc(Nc2ncc(Cc3c[nH]c4ncc(Cl)cc34)cn2)cc1	BCR-NTRK2 BaF3 cells (Homo sapiens, UniProt Q16620)	< 1000 nM
O=C(c1ccc(NC2CCC(F)(F)CC2)nc1F)c1c[nH]c2ncnc(NC3CC3)c12	BCR-NTRK2 BaF3 cells (Homo sapiens, UniProt Q16620)	< 10 nM
CCc1ccc(Nc2ccc(C(=O)c3c[nH]c4ncnc(NC(C)C)c34)c(F)n2)cn1	BCR-NTRK2 BaF3 cells (Homo sapiens, UniProt Q16620)	< 10 nM
CCc1ccc(Nc2ccc(C(=O)c3c[nH]c4ncnc(NCCCOC)c34)c(F)n2)cn1	BCR-NTRK2 BaF3 cells (Homo sapiens, UniProt Q16620)	< 10 nM
Fc1nc(NC2CCC(F)(F)CC2)ccc1Cc1c[nH]c2ncnc(NC3CC3)c12	BCR-NTRK2 BaF3 cells (Homo sapiens, UniProt Q16620)	< 100 nM
O=C(c1ccc(Nc2ccc(C3CC3)nc2)nc1F)c1c[nH]c2ncnc(C3CC3)c12	BCR-NTRK2 BaF3 cells (Homo sapiens, UniProt Q16620)	< 10 nM
CC(C)Nc1ncnc2[nH]cc(C(=O)c3ccc(NC4CCCCC4)nc3Cl)c12	BCR-NTRK2 BaF3 cells (Homo sapiens, UniProt Q16620)	< 1000 nM
COc1ccccc1Nc1ncc(Cc2c[nH]c3ncc(Cl)cc23)cn1	BCR-NTRK2 BaF3 cells (Homo sapiens, UniProt Q16620)	> 10000 nM
COc1ccc(Nc2ccc(C(=O)c3c[nH]c4ncnc(N[C@@H](C)c5ccc(F)cc5)c34)c(F)n2)cn1	BCR-NTRK2 BaF3 cells (Homo sapiens, UniProt Q16620)	< 10 nM
COc1ncnc2[nH]cc(Cc3ccc(Nc4ccc(Cl)nc4)nc3F)c12	BCR-NTRK2 BaF3 cells (Homo sapiens, UniProt Q16620)	< 1000 nM
CC(C)=CNc1ncnc2[nH]cc(C(=O)c3ccc(NC4CCC(F)(F)CC4)nc3Cl)c12	BCR-NTRK2 BaF3 cells (Homo sapiens, UniProt Q16620)	> 1000 nM
Clc1cnc2[nH]cc(Cc3cnc(NC4CCC4)nc3)c2c1	BCR-NTRK2 BaF3 cells (Homo sapiens, UniProt Q16620)	> 10000 nM
CCOc1ccc(Nc2ccc(C(=O)c3c[nH]c4ncc(C)cc34)c(F)n2)cn1	BCR-NTRK2 BaF3 cells (Homo sapiens, UniProt Q16620)	< 10 nM
O=C(c1cnc(NC2CCC(F)(F)CC2)c(F)c1)c1c[nH]c2ncnc(NCC(F)(F)F)c12	BCR-NTRK2 BaF3 cells (Homo sapiens, UniProt Q16620)	< 1000 nM
CCOc1ncnc2[nH]cc(Cc3ccc(Nc4ccc(Br)nc4)nc3F)c12	BCR-NTRK2 BaF3 cells (Homo sapiens, UniProt Q16620)	< 100 nM
CCNc1ncnc2[nH]cc(C(=O)c3cnc(NC4CCC(F)(F)CC4)c(F)c3)c12	BCR-NTRK2 BaF3 cells (Homo sapiens, UniProt Q16620)	< 10 nM
Cc1ccc(Nc2ccc(C(=O)c3c[nH]c4ncnc(NC5CCCCC5)c34)c(F)n2)cn1	BCR-NTRK2 BaF3 cells (Homo sapiens, UniProt Q16620)	< 10 nM
Cc1cnc2[nH]cc(Cc3cnc(Nc4cc(C(C)(C)C)n[nH]4)nc3)c2c1	BCR-NTRK2 BaF3 cells (Homo sapiens, UniProt Q16620)	> 1000 nM
CCNc1ncnc2[nH]cc(C(=O)c3ccc(Nc4ccc(C5CC5)nc4)nc3F)c12	BCR-NTRK2 BaF3 cells (Homo sapiens, UniProt Q16620)	< 10 nM
Fc1cc(Cc2c[nH]c3ncnc(NC4CC4)c23)cnc1NC1CCC(F)(F)CC1	BCR-NTRK2 BaF3 cells (Homo sapiens, UniProt Q16620)	< 100 nM
Clc1cnc2[nH]cc(Cc3cnc(NC4CCCCC4)nc3)c2c1	BCR-NTRK2 BaF3 cells (Homo sapiens, UniProt Q16620)	> 10000 nM
COc1ccc(Nc2ccc(C(=O)c3c[nH]c4ncnc(NC5CC5)c34)c(F)n2)cn1	BCR-NTRK2 BaF3 cells (Homo sapiens, UniProt Q16620)	< 10 nM
COc1cc(Nc2ncc(Cc3c[nH]c4ncc(C)cc34)cn2)ccc1F	BCR-NTRK2 BaF3 cells (Homo sapiens, UniProt Q16620)	< 1000 nM
COc1ccc(Nc2ccc(C(=O)c3c[nH]c4ncnc(NCc5ccc(C(F)(F)F)nc5)c34)c(F)n2)cn1	BCR-NTRK2 BaF3 cells (Homo sapiens, UniProt Q16620)	< 100 nM
O=C(c1ccc(Nc2ccc(C(F)(F)F)nc2)nc1F)c1c[nH]c2ncnc(NC3CC3)c12	BCR-NTRK2 BaF3 cells (Homo sapiens, UniProt Q16620)	< 10 nM
Cc1cnc2[nH]cc(Cc3cnc(Nc4cc(C(F)(F)F)n[nH]4)nc3)c2c1	BCR-NTRK2 BaF3 cells (Homo sapiens, UniProt Q16620)	> 10000 nM
CCc1ccc(Nc2ccc(C(=O)c3c[nH]c4ncnc(NC5CCOCC5)c34)c(F)n2)cn1	BCR-NTRK2 BaF3 cells (Homo sapiens, UniProt Q16620)	< 10 nM
COc1ccc(Nc2ccc(C(=O)c3c[nH]c4ncnc(NC5CCCCC5)c34)c(F)n2)cn1	BCR-NTRK2 BaF3 cells (Homo sapiens, UniProt Q16620)	< 10 nM
O=C(c1ccc(NC2CCC(F)(F)CC2)nc1Cl)c1c[nH]c2ncnc(NCC(F)(F)F)c12	BCR-NTRK2 BaF3 cells (Homo sapiens, UniProt Q16620)	> 1000 nM
COc1ccc(Nc2ccc(Cc3c[nH]c4ncnc(C)c34)c(F)n2)cn1	BCR-NTRK2 BaF3 cells (Homo sapiens, UniProt Q16620)	< 1000 nM
COc1ncnc2[nH]cc(Cc3ccc(Nc4ccc(C5CC5)nc4)nc3F)c12	BCR-NTRK2 BaF3 cells (Homo sapiens, UniProt Q16620)	< 10 nM
CCOc1ccc(Nc2ccc(C(=O)c3c[nH]c4ncnc(OC)c34)c(F)n2)cn1	BCR-NTRK2 BaF3 cells (Homo sapiens, UniProt Q16620)	< 100 nM
